Tested on: A549
Experiment: Antiproliferative activity against human A549 cells after 48 hrs by MTT assay
Type: functional, cell-based
Conditions: Homo sapiens, A549, 48 h
RECORDED METRIC: IC50 (nM)
Write the value in nM as a bare number.

IC50 measured on Cc1cc(Nc2nc(Nc3ccc(C(=O)NC4CC(C)(C)N([O])C(C)(C)C4)cc3)ncc2F)no1 = 880

The recorded IC50 for entry CCCCOC(=O)Cc1cc(Nc2nc(Nc3ccc(C(=O)NC4CC(C)(C)N([O])C(C)(C)C4)cc3)ncc2F)n[nH]1 equals 890

// field: IC50; key: Cc1cc(Nc2cc(N3CCN(C)CC3)nc(Sc3ccc(NC(=O)C4CC4)cc3)n2)n[nH]1 [TOZASERTIB] ; value = 35800

* * *

System: HepG2
Test: Antiproliferative activity against human HepG2 cells after 48 hrs by MTT assay
Type: functional, cell-based
Settings: hepg2
Grouping key: IC50. Bins: range 1: < 10 µM; range 2: ≥ 10 µM and < 30 µM; range 3: ≥ 30 µM

Band for CC(C)OC(=O)Cc1csc(Nc2nc(Nc3ccc(C(=O)NC4CC(C)(C)N([O])C(C)(C)C4)cc3)ncc2F)n1 ? range 2

Which bin, given its IC50, does CC1(C)CC(NC(=O)c2ccc(Nc3ncc(F)c(N4CCOCC4)n3)cc2)CC(C)(C)N1[O] occupy? range 2

Quick check: band for CCN1CCN(c2nc(Nc3ccc(C(=O)NC4CC(C)(C)N([O])C(C)(C)C4)cc3)ncc2[N+](=O)[O-])CC1 range 3

Band of Cc1cc(Nc2nc(Nc3ccc(C(=O)NC4CC(C)(C)N([O])C(C)(C)C4)cc3)ncc2[N+](=O)[O-])n[nH]1 ? range 3

Band for the recorded IC50 of Cc1cc(Nc2nc(Nc3ccc(C(=O)NC4CC(C)(C)N([O])C(C)(C)C4)cc3)ncc2[N+](=O)[O-])no1 ? range 1

// return the class label for CC1(C)CC(NC(=O)c2ccc(Nc3ncc(F)c(NCCCNc4ccc([N+](=O)[O-])cc4)n3)cc2)CC(C)(C)N1[O] range 2

Any idea which band CC1(C)CC(NC(=O)c2ccc(Nc3ncc([N+](=O)[O-])c(NC4CCCC4)n3)cc2)CC(C)(C)N1[O] is in? range 2

Hey, which category is CCCCOC(=O)Cc1csc(Nc2nc(Nc3ccc(C(=O)NC4CC(C)(C)N([O])C(C)(C)C4)cc3)ncc2F)n1 in, do you know? range 2

Lab log: CCOC(=O)c1csc(Nc2nc(Nc3ccc(C(=O)NC4CC(C)(C)N([O])C(C)(C)C4)cc3)ncc2[N+](=O)[O-])n1 — assign IC50 category range 1

Input CCOC(=O)Cc1csc(Nc2nc(Nc3ccc(C(=O)NC4CC(C)(C)N([O])C(C)(C)C4)cc3)ncc2[N+](=O)[O-])n1 ; output its category range 2

Exercise: read the entry CC1(C)CC(NC(=O)c2ccc(Nc3ncc([N+](=O)[O-])c(N4CCN(c5ccc(F)cc5)CC4)n3)cc2)CC(C)(C)N1[O] and state which class it falls under. range 2

Dear colleague, I would appreciate it if you could identify the bin for Cc1cc(Nc2nc(Nc3ccc(C(=O)NC4CC(C)(C)N([O])C(C)(C)C4)cc3)ncc2F)n[nH]1 and reply at your convenience. range 2

* * *

Molecular target: Aurora kinase A (Homo sapiens)
Sequence (O14965 whole entry): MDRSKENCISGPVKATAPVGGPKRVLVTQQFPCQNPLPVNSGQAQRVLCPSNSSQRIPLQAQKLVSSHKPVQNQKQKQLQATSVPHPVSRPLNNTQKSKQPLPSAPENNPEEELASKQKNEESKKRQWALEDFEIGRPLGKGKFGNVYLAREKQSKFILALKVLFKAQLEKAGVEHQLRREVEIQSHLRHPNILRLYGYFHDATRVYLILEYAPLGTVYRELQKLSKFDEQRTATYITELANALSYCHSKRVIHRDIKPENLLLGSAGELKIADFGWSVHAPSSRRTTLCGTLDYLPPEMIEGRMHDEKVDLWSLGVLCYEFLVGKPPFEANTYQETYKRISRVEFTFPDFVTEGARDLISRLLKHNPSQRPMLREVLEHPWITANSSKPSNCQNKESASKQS
Task for the reader: assign each of the following compounds its reported IC50.
# output: bare number, implied unit nM

Field IC50 (entry Cc1cc(Nc2nc(Nc3ccc(C(=O)NC4CC(C)(C)N([O])C(C)(C)C4)cc3)ncc2F)no1 ) reads 20.1

The reported value for CCCCOC(=O)Cc1cc(Nc2nc(Nc3ccc(C(=O)NC4CC(C)(C)N([O])C(C)(C)C4)cc3)ncc2F)n[nH]1 in terms of IC50 is 9.3
